TARGET_OF_ASSAY: T1, Anti-CD28 Fab (SEQ ID NOs: 696, 697)
T1 construct: In the phage ELISA the Fab was biotinylated and captured on neutravidin coated plates
RUN_DESCRIPTION: phage binding ELISA; biotinylated anti-CD28 Fab on neutravidin plate, clonal phage detected with anti-M13 HRP
Where no end group is shown, it is not given here.
OUTCOME_MEASURE: Anti-CD28 Fab signal (phage binding ELISA)
Write the value as a bare number.

See these solved cases before continuing.
BINDER	NUMERIC_RESULT
YCEGHLPAYMGKCI (cysteine pairing not given here; also: displayed as fusion to phage pIII, linker not given here) [Phage-1082]	1.37
YCDGHSETYLWKCL (cysteine pairing not given here; also: displayed as fusion to phage pIII, linker not given here) [Phage-1081]	1.37
YCDGHLQEYMQKCL (cysteine pairing not given here; also: displayed as fusion to phage pIII, linker not given here) [Phage-1077]	1.38
YCDGHLALYMWKCL (cysteine pairing not given here; also: displayed as fusion to phage pIII, linker not given here) [Phage-1087]	1.36
YCDGHLSIYMTKCL (cysteine pairing not given here; also: displayed as fusion to phage pIII, linker not given here) [Phage-1088]	1.36

Tell me its Anti-CD28 Fab signal (phage binding ELISA) given YCDGHVKEYMYKCL (cysteine pairing not given here; also: displayed as fusion to phage pIII, linker not given here) [Phage-1086] as the entry.
1.36

Tell me its Anti-CD28 Fab signal (phage binding ELISA) given YCEGHLDEYLQKCL (cysteine pairing not given here; also: displayed as fusion to phage pIII, linker not given here) [Phage-1076] as the entry.
1.38

Tell me its Anti-CD28 Fab signal (phage binding ELISA) given YCEGHSQLYMAKCL (cysteine pairing not given here; also: displayed as fusion to phage pIII, linker not given here) [Phage-1080] as the entry.
1.37

Tell me its Anti-CD28 Fab signal (phage binding ELISA) given YCDGHLSEYIGKCL (cysteine pairing not given here; also: displayed as fusion to phage pIII, linker not given here) [Phage-1079] as the entry.
1.37

Cited source for all entries: patent US20260242478A1
